Data origin: patent US11957759B1

Quick reference: DC50 of the listed items.
# Assayed Target: B-RAF V600E (Homo sapiens, UniProt P15056, V600E)
# Construct: expressed in transfected cells; host or cells: T-Rex 293 cells (Invitrogen #R71007)
# Sequence (P15056 whole entry V600E): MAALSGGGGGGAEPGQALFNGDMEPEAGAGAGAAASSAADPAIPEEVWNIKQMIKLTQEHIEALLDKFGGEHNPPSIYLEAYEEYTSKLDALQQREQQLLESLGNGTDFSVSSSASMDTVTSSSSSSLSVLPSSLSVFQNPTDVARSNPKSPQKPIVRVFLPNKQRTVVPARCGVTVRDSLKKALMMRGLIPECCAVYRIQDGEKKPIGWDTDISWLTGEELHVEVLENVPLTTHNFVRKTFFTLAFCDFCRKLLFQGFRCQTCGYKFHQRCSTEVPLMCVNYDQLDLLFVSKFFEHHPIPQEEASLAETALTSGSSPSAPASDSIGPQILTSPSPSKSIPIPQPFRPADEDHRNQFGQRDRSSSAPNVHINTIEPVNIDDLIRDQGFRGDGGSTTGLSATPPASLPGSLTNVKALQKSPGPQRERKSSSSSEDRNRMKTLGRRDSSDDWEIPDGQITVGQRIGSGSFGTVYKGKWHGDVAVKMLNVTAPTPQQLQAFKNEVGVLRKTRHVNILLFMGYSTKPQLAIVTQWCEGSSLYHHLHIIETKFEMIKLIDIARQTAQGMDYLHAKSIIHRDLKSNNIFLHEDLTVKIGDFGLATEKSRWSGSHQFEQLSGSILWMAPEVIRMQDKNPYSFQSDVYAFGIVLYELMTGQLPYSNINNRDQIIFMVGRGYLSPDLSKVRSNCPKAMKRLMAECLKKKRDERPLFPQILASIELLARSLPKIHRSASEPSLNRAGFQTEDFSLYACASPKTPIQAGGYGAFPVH
# Procedure Summary: Target protein degradation, assay C: T-Rex 293 cells, HA-BRAF_V600E, 384 well format
# Format: cell-based
# Experimental Context: Assay C, T-Rex 293 HA-BRAF_V600E cells, 24 hours, Examples 83-269
# Experimental: C. T-Rex 293 Cells (384 Well Format) T-Rex 293 cells were purchased from Invitrogen (#R71007), and stably transfected with a pcDNA4/TO_HA-BRAF_V600E construct, using 400 ug Zeocin for selection. […] BRAF intensity is quantified in HCS Studio software (ThermoFisher), using a custom script, exported, analyzed using KNIME, and curve curation is performed in an ELN (Scilligence). Cell toxicity is measured via comparing number of nuclei in PROTAC treated wells to DMSO controls. […]
Quantity: DC50

* N#Cc1c(NS(=O)(=O)N2CC[C@@H](F)C2)ccc(F)c1Oc1ccc2ncn(-c3cnc(N4CCN(CC5CCN(c6ccc7c(c6)CN(C6CCC(=O)NC6=O)C7=O)CC5)CC4)cn3)c(=O)c2c1 (stereo partly drawn) | 5 to 50 nM
* N#Cc1c(NS(=O)(=O)N2CC[C@@H](F)C2)ccc(F)c1Oc1ccc2ncn(-c3ccc(N4CCC(c5ccc6c(c5)CN(C5CCC(=O)NC5=O)C6=O)CC4)nc3)c(=O)c2c1 (stereo partly drawn) | 5 to 50 nM
* N#Cc1c(NS(=O)(=O)N2CC[C@@H](F)C2)ccc(F)c1Oc1ccc2ncn(-c3cnc(N4CCN(CCN5CCN(c6ccc(C7CCC(=O)NC7=O)cc6F)CC5)CC4)nc3)c(=O)c2c1 (stereo partly drawn) | 5 to 50 nM
* N#Cc1c(NS(=O)(=O)N2CC[C@@H](F)C2)ccc(F)c1Oc1ccc2ncn(-c3cccc(C4CCN(CC5CCN(c6ccc7c(c6)CN([C@H]6CCC(=O)NC6=O)C7=O)CC5)C4)c3)c(=O)c2c1 (single isomer, unassigned) [Example 259] | 50 to 500 nM
* CN(c1ccc2c(c1)CN([C@H]1CCC(=O)NC1=O)C2=O)[C@H]1CC[C@H](N2CCN(c3ccc(-n4cnc5ccc(Oc6c(F)ccc(NS(=O)(=O)N7CC[C@@H](F)C7)c6C#N)cc5c4=O)cc3)CC2)CC1 | 50 to 500 nM
* N#Cc1c(NS(=O)(=O)N2CC[C@@H](F)C2)ccc(F)c1Oc1ccc2ncn(-c3ccc(N4CCC5(CCN(CC6CCN(c7ccc8c(c7)CN([C@H]7CCC(=O)NC7=O)C8=O)CC6)CC5)CC4)cc3)c(=O)c2c1 | 50 to 500 nM
* Cn1c(=O)n(C2CCC(=O)NC2=O)c2cccc(N3CC4(CC(CN5CCN(c6ccc(-n7cnc8ccc(Oc9c(F)ccc(NS(=O)(=O)N%10CC[C@@H](F)C%10)c9C#N)cc8c7=O)cc6)CC5)C4)C3)c21 (stereo partly drawn) | 50 to 500 nM
* N#Cc1c(NS(=O)(=O)N2CC[C@@H](F)C2)ccc(F)c1Oc1ccc2ncn(-c3ccc(N4CCC(O[C@H]5C[C@H](N6CCC(c7ccc8c(c7)CN(C7CCC(=O)NC7=O)C8=O)CC6)C5)CC4)cc3)c(=O)c2c1 (stereo partly drawn) | 50 to 500 nM
* N#Cc1c(NS(=O)(=O)N2CC[C@@H](F)C2)ccc(F)c1Oc1ccc2ncn(-c3ccc(N4CCC(CN5CC6(CCC(c7ccc8c(c7)CN(C7CCC(=O)NC7=O)C8=O)CC6)C5)C4)cc3)c(=O)c2c1 (single isomer, unassigned) [Example 261] | 50 to 500 nM

----------
Quick reference: Dmax of the listed items.
# Assayed Target: B-RAF G466V (Homo sapiens, UniProt P15056, G466V)
# Construct: expressed in transfected cells; host or cells: T-Rex 293 cells (Invitrogen #R71007)
# Sequence (P15056 whole entry G466V): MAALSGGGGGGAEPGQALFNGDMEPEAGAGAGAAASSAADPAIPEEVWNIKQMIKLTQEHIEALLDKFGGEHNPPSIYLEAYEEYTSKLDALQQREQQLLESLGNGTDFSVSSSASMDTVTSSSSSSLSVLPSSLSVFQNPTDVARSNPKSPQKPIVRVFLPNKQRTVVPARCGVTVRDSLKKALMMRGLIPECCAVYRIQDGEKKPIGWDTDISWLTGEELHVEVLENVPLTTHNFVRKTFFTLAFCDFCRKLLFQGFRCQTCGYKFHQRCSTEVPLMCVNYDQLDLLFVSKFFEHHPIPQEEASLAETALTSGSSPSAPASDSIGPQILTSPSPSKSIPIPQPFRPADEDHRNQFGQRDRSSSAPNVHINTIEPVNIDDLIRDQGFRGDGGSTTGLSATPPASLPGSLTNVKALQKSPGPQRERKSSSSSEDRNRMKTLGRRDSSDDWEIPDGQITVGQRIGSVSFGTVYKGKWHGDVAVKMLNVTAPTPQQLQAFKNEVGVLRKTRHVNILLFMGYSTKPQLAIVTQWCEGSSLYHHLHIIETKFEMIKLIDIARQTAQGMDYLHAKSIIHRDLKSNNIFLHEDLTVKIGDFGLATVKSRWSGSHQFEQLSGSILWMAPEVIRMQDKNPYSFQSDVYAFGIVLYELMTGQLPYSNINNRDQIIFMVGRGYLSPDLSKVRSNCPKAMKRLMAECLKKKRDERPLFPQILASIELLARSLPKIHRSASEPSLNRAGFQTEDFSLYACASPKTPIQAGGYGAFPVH
# Procedure Summary: Target protein degradation, assay D: T-Rex 293 cells, HA-BRAF_G466V, 384 well format
# Assay type: cell-based
# Experimental Context: T-REx-293, Assay D, T-Rex 293 HA-BRAF_G466V cells, 24 hours, Examples 83-269
Quantity: Dmax

* C[C@H]1CN(CC2CCN(c3ccc4c(c3F)CN([C@H]3CCC(=O)NC3=O)C4=O)CC2)CCN1c1ccc(-n2cnc3ccc(Oc4c(F)ccc(NS(=O)(=O)N5CC[C@@H](F)C5)c4C#N)cc3c2=O)nc1 [Example 213] | ≤ 35%
* CN(c1ccc(-n2cnc3ccc(Oc4c(F)ccc(NS(=O)(=O)N5CC[C@@H](F)C5)c4C#N)cc3c2=O)cc1)[C@H]1CC[C@@H](N2CCN(c3ccc4c(c3)CN([C@H]3CCC(=O)NC3=O)C4=O)CC2)CC1 [Example 224] | 35 to 70%

----------
# Assayed Target: B-RAF G466V (Homo sapiens, UniProt P15056, G466V)
# Construct: expressed in transfected cells; host or cells: T-Rex 293 cells (Invitrogen #R71007)
# Procedure Summary: Target protein degradation, assay D: T-Rex 293 cells, HA-BRAF_G466V, 384 well format
# Type: cell-based
# Experimental Context: Assay D, T-Rex 293 HA-BRAF_G466V cells, 24 hours, Examples 83-269
Quick reference: DC50 of the listed items.
Quantity: DC50

- N#Cc1c(NS(=O)(=O)N2CC[C@@H](F)C2)ccc(F)c1Oc1ccc2ncn(-c3cnc(N4CC5(CN(CC6CCN(c7ccc8c(c7)C(=O)N(C7CCC(=O)NC7=O)C8=O)CC6)C5)C4)nc3)c(=O)c2c1 (stereo partly drawn): 1 to 10 nM
- N#Cc1c(NS(=O)(=O)N2CC[C@@H](F)C2)ccc(F)c1Oc1ccc2ncn(-c3ccc(N4CCC(CN5CCC(c6ccc([C@@H]7CCC(=O)NC7=O)cc6F)CC5)CC4)cc3)c(=O)c2c1: 1 to 10 nM
- COc1cc(N2CC(CN3CCN(c4ccc(-n5cnc6ccc(Oc7c(F)ccc(NS(=O)(=O)N8CC[C@@H](F)C8)c7C#N)cc6c5=O)cc4)CC3)C2)cc2c1C(=O)N([C@H]1CCC(=O)NC1=O)C2: 10 to 30 nM
- N#Cc1c(NS(=O)(=O)N2CC[C@@H](F)C2)ccc(F)c1Oc1ccc2ncn(-c3ccc(N4CCN(c5ccc6c(c5)CN(C5CCC(=O)NC5=O)C6=O)CC4)nc3)c(=O)c2c1 (stereo partly drawn): > 30 nM
- COCCN(CC1CCN(c2ccc(-n3cnc4ccc(Oc5c(F)ccc(NS(=O)(=O)N6CC[C@@H](F)C6)c5C#N)cc4c3=O)cc2)CC1)[C@H]1C[C@@H](Oc2ccc3c(c2)CN([C@H]2CCC(=O)NC2=O)C3=O)C1: 10 to 30 nM
- N#Cc1c(NS(=O)(=O)N2CC[C@@H](F)C2)ccc(F)c1Oc1ccc2ncn(-c3cccc(C4CCN(CC5CN(c6ccc7c(c6)CN([C@H]6CCC(=O)NC6=O)C7=O)C5)CC4)c3)c(=O)c2c1: 1 to 10 nM
- N#Cc1c(NS(=O)(=O)N2CC[C@@H](F)C2)ccc(F)c1Oc1ccc2ncn(-c3ccc(N4CCC(CN5CC6(CCC(c7ccc8c(c7)CN(C7CCC(=O)NC7=O)C8=O)CC6)C5)C4)cc3)c(=O)c2c1 (single isomer, unassigned) [Example 261]: 1 to 10 nM
- N#Cc1c(NS(=O)(=O)N2CC[C@@H](F)C2)ccc(F)c1Oc1ccc2ncn(-c3ccc(N4CCC(CCCN5CCN(c6ccc7c(c6)C(=O)N(C6CCC(=O)NC6=O)C7=O)CC5)CC4)nc3)c(=O)c2c1 (stereo partly drawn): 1 to 10 nM
- N#Cc1c(NS(=O)(=O)N2CC[C@@H](F)C2)ccc(F)c1Oc1ccc2ncn(-c3ccc(C4CCCN(CC5CCN(c6ccc7c(c6)CN([C@H]6CCC(=O)NC6=O)C7=O)CC5)C4)cc3)c(=O)c2c1 (stereo partly drawn): 1 to 10 nM
- Cc1cc(N2CC(CN3CCN(c4ccc(-n5cnc6ccc(Oc7c(F)ccc(NS(=O)(=O)N8CC[C@@H](F)C8)c7C#N)cc6c5=O)cc4)CC3)C2)cc2c1C(=O)N([C@@H]1CCC(=O)NC1=O)C2: 1 to 10 nM
- N#Cc1c(NS(=O)(=O)N2CC[C@@H](F)C2)ccc(F)c1Oc1ccc2ncn(-c3ccc(N4CCN(CC5CCN(c6ccc7c(c6)CN(C6CCC(=O)NC6=O)C7=O)CC5)CC4)c(F)c3)c(=O)c2c1 (stereo partly drawn): ≤ 1 nM
- N#Cc1c(NS(=O)(=O)N2CC[C@@H](F)C2)ccc(F)c1Oc1ccc2ncn(-c3ccc(N4CC(C5CN(c6ccc7c(c6)C(=O)N(C6CCC(=O)NC6=O)C7=O)C5)C4)nc3)c(=O)c2c1 (stereo partly drawn): ≤ 1 nM
- N#Cc1c(NS(=O)(=O)N2CC[C@@H](F)C2)ccc(F)c1Oc1ccc2ncn(-c3ccc(C4CCC5(CC4)CCN(CC4CCN(c6ccc7c(c6)CN([C@H]6CCC(=O)NC6=O)C7=O)CC4)CC5)cc3)c(=O)c2c1: 1 to 10 nM
- N#Cc1c(NS(=O)(=O)N2CC[C@@H](F)C2)ccc(F)c1Oc1ccc2ncn(-c3ccc(N4CCC(CN5CCN(CC6CCN(c7ccc8c(c7)CN([C@@H]7CCC(=O)NC7=O)C8=O)CC6)CC5)CC4)cc3)c(=O)c2c1: 10 to 30 nM
- N#Cc1c(NS(=O)(=O)N2CC[C@@H](F)C2)ccc(F)c1Oc1ccc2ncn(-c3ccc(N4CCC5(CCN(CC6CCN(c7ccc8c(c7)CN([C@@H]7CCC(=O)NC7=O)C8=O)CC6)CC5)CC4)cc3)c(=O)c2c1: 1 to 10 nM
- N#Cc1c(NS(=O)(=O)N2CC[C@@H](F)C2)ccc(F)c1Oc1ccc2ncn(-c3ccc(N4CCC(CN5CCN(c6ccc7c(c6)CN([C@H]6CCC(=O)NC6=O)C7=O)CC5)C4)cc3)c(=O)c2c1 (stereo partly drawn): 1 to 10 nM
- N#Cc1c(NS(=O)(=O)N2CC[C@@H](F)C2)ccc(F)c1Oc1ccc2ncn(-c3cccc(N4CCN(CC5CCN(c6ccc7c(c6)CN(C6CCC(=O)NC6=O)C7=O)CC5)CC4)c3)c(=O)c2c1 (stereo partly drawn): 1 to 10 nM
- N#Cc1c(NS(=O)(=O)N2CC[C@@H](F)C2)ccc(F)c1Oc1ccc2ncn(-c3ccc(C4CCN(CC5CN(c6ccc7c(c6Cl)CN([C@H]6CCC(=O)NC6=O)C7=O)C5)CC4)cc3)c(=O)c2c1: 1 to 10 nM
